Catalogue of IC50 values
STUDY_TARGET: human recombinant PDE5 (Homo sapiens)
PROCEDURE_TEXT: Inhibitory effect on cGMP-PDE (one-step assay, 8-[H3]-cGMP)
ASSAY_METRIC: IC50

CN1CCN2[C@@H](c3ccc4c(c3)OCO4)c3[nH]c4ccccc4c3C[C@@H]2C1=O 575 nM
CN1CCN2[C@H](c3ccc4c(c3)OCO4)c3[nH]c4ccccc4c3C[C@@H]2C1=O 54 nM
O=C1CNC[C@H]2Cc3c([nH]c4ccccc34)[C@@H](c3ccc4c(c3)OCO4)N12 2.3 nM
